The reported numbers originate from the supplement of paper PMC11208160.

- EXPERIMENT: recombinant barcode read abundance after kanamycin selection (control-corrected) (log10(CPM+1)); higher = more efficient recombination; sequences stand for … in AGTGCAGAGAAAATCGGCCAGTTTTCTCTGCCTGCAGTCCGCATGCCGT…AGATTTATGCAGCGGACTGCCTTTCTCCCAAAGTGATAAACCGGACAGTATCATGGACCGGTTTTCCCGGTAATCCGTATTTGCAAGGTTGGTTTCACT; site = the 11-nt target;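 also: IS621 recombinase and bridge RNA in Escherichia coli cells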
Output 1.0 for recombinant barcode read abundance (log10) not less than 0.2; output 0.0 otherwise.

[
  {
    "INPUT_SEQUENCE": "CGGAACACTTGGGTTCTAACCTGTTGCGG (site CGGAACACTCC)",
    "LABEL_CLASS": 1.0
  },
  {
    "INPUT_SEQUENCE": "CGCAGCACTTGGGTTCTAACCTGTTGCCT (site CGCAGCACTAG)",
    "LABEL_CLASS": 1.0
  },
  {
    "INPUT_SEQUENCE": "TCGGAGTCTTGGGTTCTAACCTGTTGCCG (site TCGGAGTCTCA)",
    "LABEL_CLASS": 0.0
  },
  {
    "INPUT_SEQUENCE": "GCACATACTTGGGTTCTAACCTGTTGCCT (site GCACATACTAG)",
    "LABEL_CLASS": 1.0
  },
  {
    "INPUT_SEQUENCE": "AGCAATTCTTGGGTTCTAACCTGTTGCCT (site AGGAATTCTAG)",
    "LABEL_CLASS": 0.0
  },
  {
    "INPUT_SEQUENCE": "CGTGCAGCTTGGGTTCTAACCTGTTGCCT (site CGGGCAGCTAG)",
    "LABEL_CLASS": 0.0
  },
  {
    "INPUT_SEQUENCE": "AGGGATCCTTGGGTTCTAACCTGTTGCGG (site AAGTATCCTCC)",
    "LABEL_CLASS": 0.0
  },
  {
    "INPUT_SEQUENCE": "CGGAGCCCTTGGGTTCTAACCTGTTGCGG (site CGGAGCCCTCC)",
    "LABEL_CLASS": 1.0
  },
  {
    "INPUT_SEQUENCE": "ACCTTACCTTGGGTTCTAACCTGTTGCGT (site ACCTTACCTCC)",
    "LABEL_CLASS": 1.0
  },
  {
    "INPUT_SEQUENCE": "TTAGCTTCTTGGGTTCTAACCTGTTGCCT (site TTAGCCTCTAG)",
    "LABEL_CLASS": 0.0
  },
  {
    "INPUT_SEQUENCE": "TCACATGCTTGGGTTCTAACCTGTTGCCT (site TCACGTGCTAG)",
    "LABEL_CLASS": 0.0
  },
  {
    "INPUT_SEQUENCE": "TAGGCTGCTTGGGTTCTAACCTGTTGCCT (site TAGTCTGCTAG)",
    "LABEL_CLASS": 1.0
  },
  {
    "INPUT_SEQUENCE": "TCCAACCCTTGGGTTCTAACCTGTTGCTG (site GCCAAGCCTCA)",
    "LABEL_CLASS": 0.0
  },
  {
    "INPUT_SEQUENCE": "GCGCACCCTTGGGTTCTAACCTGTTGCAG (site GCGCACCCTCT)",
    "LABEL_CLASS": 1.0
  },
  {
    "INPUT_SEQUENCE": "CGAGATCCTTGGGTTCTAACCTGTTGCCT (site CGACATCCTAG)",
    "LABEL_CLASS": 1.0
  },
  {
    "INPUT_SEQUENCE": "AGTACTCCTTGGGTTCTAACCTGTTGCTG (site AATACTACTCA)",
    "LABEL_CLASS": 0.0
  },
  {
    "INPUT_SEQUENCE": "CACTTCCCTTGGGTTCTAACCTGTTGCTT (site CACTTCCCTAT)",
    "LABEL_CLASS": 1.0
  },
  {
    "INPUT_SEQUENCE": "TCGTTTCCTTGGGTTCTAACCTGTTGCAT (site TCGTTTCCTAT)",
    "LABEL_CLASS": 0.0
  },
  {
    "INPUT_SEQUENCE": "ACCCAGCCTTGGGTTCTAACCTGTTGCGT (site ACCCAGCCTAG)",
    "LABEL_CLASS": 1.0
  },
  {
    "INPUT_SEQUENCE": "GAGGGTGCTTGGGTTCTAACCTGTTGCCT (site GAGGGTGCTAG)",
    "LABEL_CLASS": 1.0
  },
  {
    "INPUT_SEQUENCE": "TCTTCCACTTGGGTTCTAACCTGTTGCCT (site CCTTCCACTAG)",
    "LABEL_CLASS": 0.0
  },
  {
    "INPUT_SEQUENCE": "AAAGCTCCTTGGGTTCTAACCTGTTGCTT (site AAAGCTCCTAA)",
    "LABEL_CLASS": 1.0
  },
  {
    "INPUT_SEQUENCE": "CCGGATTCTTGGGTTCTAACCTGTTGCCT (site CCGGTTGCTAG)",
    "LABEL_CLASS": 1.0
  },
  {
    "INPUT_SEQUENCE": "TAGCATGCTTGGGTTCTAACCTGTTGCAG (site TAGCATGCTCT)",
    "LABEL_CLASS": 1.0
  },
  {
    "INPUT_SEQUENCE": "TAGTTAACTTGGGTTCTAACCTGTTGCCA (site TAGTTAACTTG)",
    "LABEL_CLASS": 1.0
  },
  {
    "INPUT_SEQUENCE": "GCAATCCCTTGGGTTCTAACCTGTTGCTA (site AGAATCCCTTA)",
    "LABEL_CLASS": 0.0
  },
  {
    "INPUT_SEQUENCE": "CCTCAGTCTTGGGTTCTAACCTGTTGCGA (site CCTCACTCTCC)",
    "LABEL_CLASS": 0.0
  },
  {
    "INPUT_SEQUENCE": "CTTCAAGCTTGGGTTCTAACCTGTTGCCT (site CTCCAAGCTAG)",
    "LABEL_CLASS": 1.0
  }
]
